Data origin: ChEMBL document CHEMBL5356977

assay: Stability in human serum assessed as half life; format: ADME, cell-free
Bridge positions count the residues as written; N and C are the ends. Square brackets hold non-standard residues; d marks the D form. Peptide text beside a SMILES is read from it. Bip = N[C@@H](Cc1ccc(-c2ccccc2)cc1)C(=O)O; Sar = CNCC(=O)O
Measured Quantity: half-life (h)

{"columns": ["Compound", "Value Units", "Obs Value"],
 "data": [
  ["CN1CC(=O)N[C@@H](CO)C(=O)N[C@@H](Cc2ccc(-c3ccccc3)cc2)C(=O)NCC(=O)N[C@@H](CCCNC(=N)N)C(=O)N[C@@H](CCCNC(=N)N)C(=O)N[C@@H](CCCNC(=N)N)C(=O)NCC(=O)N[C@H](C(=O)NCC(N)=O)CSCC(=O)N[C@@H](Cc2ccccc2)C(=O)N[C@@H](Cc2ccc(O)cc2)C1=O ({CH2CO}-FY[Sar]S[Bip]GRRRGCG-NH2; thioether N-11)", "h", 1.1]
]}

---

Reported values of pIC50 for individual entries
molecular target: Inactive tyrosine-protein kinase transmembrane receptor ROR1 (Homo sapiens); experiment: Binding affinity to human ROR1 expressed in HEK293 cells by cell based assay
Sequence (Q01973 whole entry): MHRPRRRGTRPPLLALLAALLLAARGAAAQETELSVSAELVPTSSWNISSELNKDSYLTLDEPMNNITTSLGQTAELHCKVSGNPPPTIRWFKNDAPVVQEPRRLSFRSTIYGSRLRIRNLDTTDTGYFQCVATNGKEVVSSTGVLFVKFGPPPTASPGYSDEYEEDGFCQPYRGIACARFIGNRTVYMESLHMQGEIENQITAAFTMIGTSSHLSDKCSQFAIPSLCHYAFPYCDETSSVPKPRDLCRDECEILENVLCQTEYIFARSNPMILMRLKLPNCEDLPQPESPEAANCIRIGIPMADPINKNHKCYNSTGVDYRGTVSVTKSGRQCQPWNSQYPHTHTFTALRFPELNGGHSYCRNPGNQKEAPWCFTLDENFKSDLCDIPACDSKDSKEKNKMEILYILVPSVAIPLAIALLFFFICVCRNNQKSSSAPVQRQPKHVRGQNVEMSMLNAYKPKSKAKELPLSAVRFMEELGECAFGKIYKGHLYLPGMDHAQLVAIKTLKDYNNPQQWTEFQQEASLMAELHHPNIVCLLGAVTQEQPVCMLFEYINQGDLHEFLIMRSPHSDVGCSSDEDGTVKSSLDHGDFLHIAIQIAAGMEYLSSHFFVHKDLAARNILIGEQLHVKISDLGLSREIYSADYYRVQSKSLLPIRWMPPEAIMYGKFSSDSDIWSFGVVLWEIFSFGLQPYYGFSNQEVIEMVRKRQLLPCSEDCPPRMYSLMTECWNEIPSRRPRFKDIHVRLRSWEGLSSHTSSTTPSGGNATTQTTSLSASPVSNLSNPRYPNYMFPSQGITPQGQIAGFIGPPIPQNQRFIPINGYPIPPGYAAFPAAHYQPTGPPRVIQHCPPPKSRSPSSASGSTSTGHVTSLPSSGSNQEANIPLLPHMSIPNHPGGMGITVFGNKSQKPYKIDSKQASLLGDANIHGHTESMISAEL
pIC50: −log10 of the molar value. Bridge positions count the residues as written; N and C are the ends. Square brackets hold non-standard residues; d marks the D form. Peptide text beside a SMILES is read from it. NMeF = CN[C@@H](Cc1ccccc1)C(=O)O

{"columns": ["Compound", "pIC50"],
 "data": [
  ["CC(C)C[C@@H]1NC(=O)[C@H](Cc2ccccc2)N(C)C(=O)[C@H](Cc2ccc(O)cc2)NC(=O)[C@H](Cc2c[nH]c3ccccc23)NC(=O)CNC(=O)[C@H](CO)NC(=O)[C@H](Cc2ccc(O)cc2)NC(=O)[C@H](C(C)C)NC(=O)[C@H](CCCNC(=N)N)NC(=O)[C@H](Cc2ccc(O)cc2)NC(=O)[C@H](Cc2ccccc2)NC(=O)CSC[C@@H](C(=O)NCC(N)=O)NC1=O ({CH2CO}-FYRVYSGWY[NMeF]LCG-NH2; thioether N-12)", 8.20],
  ["CC(C)C[C@@H]1NC(=O)[C@H](Cc2ccc(O)cc2)NC(=O)[C@H](Cc2ccccc2)NC(=O)CSC[C@@H](C(=O)NCC(N)=O)NC(=O)[C@H](CC(C)C)NC(=O)[C@H](Cc2ccccc2)N(C)C(=O)[C@H](Cc2ccc(O)cc2)NC(=O)[C@H](Cc2c[nH]c3ccccc23)NC(=O)CNC(=O)[C@H](CCC(N)=O)NC(=O)[C@H](Cc2ccc(O)cc2)NC(=O)[C@H](C(C)C)NC1=O ({CH2CO}-FYLVYQGWY[NMeF]LCG-NH2; thioether N-12)", 8.14]
]}

---

assay: […] stability in mouse serum assessed as half life; assay type: ADME, cell-free
Bridge positions count the residues as written; N and C are the ends. Square brackets hold non-standard residues; d marks the D form. Peptide text beside a SMILES is read from it. Bip = N[C@@H](Cc1ccc(-c2ccccc2)cc1)C(=O)O; NMeF = CN[C@@H](Cc1ccccc1)C(=O)O; Sar = CNCC(=O)O
Measured Quantity: half-life (h)

{"columns": ["Compound", "Measured Quantity", "Censor Symbol", "Obs Value"],
 "data": [
  ["CN1CC(=O)N[C@@H](CO)C(=O)N[C@@H](Cc2ccc(-c3ccccc3)cc2)C(=O)NCC(=O)N[C@@H](CCCNC(=N)N)C(=O)N[C@@H](CCCNC(=N)N)C(=O)N[C@@H](CCCNC(=N)N)C(=O)NCC(=O)N[C@H](C(=O)NCC(N)=O)CSCC(=O)N[C@@H](Cc2ccccc2)C(=O)N[C@@H](Cc2ccc(O)cc2)C1=O ({CH2CO}-FY[Sar]S[Bip]GRRRGCG-NH2; thioether N-11)", "half-life", "=", 24],
  ["CC(C)C[C@@H]1NC(=O)[C@H](Cc2ccc(O)cc2)NC(=O)[C@H](Cc2ccccc2)NC(=O)CSC[C@@H](C(=O)NCC(N)=O)NC(=O)[C@H](CC(C)C)NC(=O)[C@H](Cc2ccccc2)N(C)C(=O)[C@H](Cc2ccc(O)cc2)NC(=O)[C@H](Cc2c[nH]c3ccccc23)NC(=O)CNC(=O)[C@H](CO)NC(=O)[C@H](Cc2ccc(O)cc2)NC(=O)[C@H](C(C)C)NC1=O ({CH2CO}-FYLVYSGWY[NMeF]LCG-NH2; thioether N-12)", "half-life", ">", 24]
]}
